EXPERIMENTAL_READOUT: fraction unbound, human plasma

Cc1nc2cc(C(=O)NC34CCCC3NCC4)ccc2c(=O)[nH]1 (stereo unspecified) :: 0.735
CN(C)C(=O)C1(Cc2ccccc2-c2cccc(F)c2)CCN(C(=O)C2CC=CCC2)CC1 (stereo unspecified) :: 0.00787
Cc1cn2nc(-c3cc(=O)n4cc(N5CCNC6(CC6)C5)ccc4n3)cc(C)c2n1 :: 0.0967
Cc1ncsc1C(=O)N1CCCCC1c1nc(N)ncc1-c1cccc(C(F)(F)F)c1 (stereo unspecified) :: 0.0412
Cc1c[nH]c(=O)n1-c1ccc(C(=O)Nc2ccc3ccccc3n2)cc1 :: 0.0436

1 = O=C(Nc1cccc(N2CCNC2=O)c1)C1NCC12CCCC2 (stereo unspecified)
2 = COc1ccccc1C(=O)Nc1ccc2cc[nH]c2c1
Task: Identify the entry with the larger fraction unbound, human plasma. Options: 1 and 2 // return label of chosen record
Result: 1
(1: 0.523, 2: 0.032)
